src = patent US11813306B2

Molecular target: human PCSK9 (Homo sapiens, UniProt Q8NBP7)
Sequence (Q8NBP7 153-692): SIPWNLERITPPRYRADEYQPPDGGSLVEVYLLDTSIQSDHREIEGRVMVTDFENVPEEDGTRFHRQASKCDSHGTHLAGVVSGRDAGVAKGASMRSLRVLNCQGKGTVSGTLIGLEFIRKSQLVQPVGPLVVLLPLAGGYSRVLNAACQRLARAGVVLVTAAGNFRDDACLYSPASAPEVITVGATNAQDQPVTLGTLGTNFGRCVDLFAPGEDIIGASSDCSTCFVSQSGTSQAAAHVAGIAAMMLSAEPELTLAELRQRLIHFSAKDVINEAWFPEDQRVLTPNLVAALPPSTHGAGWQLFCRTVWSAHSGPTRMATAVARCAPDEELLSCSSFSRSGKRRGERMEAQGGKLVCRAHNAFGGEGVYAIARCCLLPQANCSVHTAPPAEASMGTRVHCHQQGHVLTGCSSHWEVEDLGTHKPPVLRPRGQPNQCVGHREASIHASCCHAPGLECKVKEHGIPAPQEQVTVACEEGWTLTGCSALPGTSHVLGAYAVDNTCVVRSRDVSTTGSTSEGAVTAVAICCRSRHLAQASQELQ
Sequence (Q8NBP7 31-152 partner limits assumed): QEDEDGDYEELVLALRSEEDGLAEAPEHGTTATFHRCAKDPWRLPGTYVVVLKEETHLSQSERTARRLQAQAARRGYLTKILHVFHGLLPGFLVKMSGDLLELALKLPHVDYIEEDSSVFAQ
Assay: PCSK9 ligand binding assay (TR-FRET): interference with binding of human PCSK9 to human LDLR
Conditions: Human PCSK9 Alexa Fluor 647 / Human LDLR extracellular domain-Europium Kryptate
Experimental endpoint: pIC50
For clarity, pIC50 is expressed as the negative log10 of concentration in mol/L.

C[C@H]1C(=O)N[C@@H](CO)C(=O)N(C)[C@H](Cc2ccc(Cl)cc2)CN(C)C(=O)[C@H]([C@H]2CCc3ccccc32)CC(=O)N1Cc1ccc(Cl)cc1Oc1ccc(-c2cnc(CN3CCCC3)n2C)cc1.Cl [Compound 86, hydrochloride]    9.03

Readout pIC50 for C[C@H]1C[C@H]([C@@H]2CC(=O)N(Cc3ccc(Cl)cc3Oc3ccc(-c4cnc(CN(C)C)n4C)cc3)[C@@H](C)C(=O)N[C@@H](CO)C(=O)N(C)[C@H](Cc3ccc(Cl)cc3)CN(C)C2=O)c2ccccc21.Cl [Compound 81] , test system human PCSK9 (Homo sapiens, UniProt Q8NBP7), was 9.02

====

Biological target: UniProtKB Q8NBP7
Assay: PCSK9 ligand binding assay (TR-FRET): interference with binding of human PCSK9 to human LDLR
Conditions: efficacy (Amax), 100% = 1 uM unlabeled human PCSK9, 0% = DMSO
Experimental endpoint: Max % inhibition (%)
Reply with just the number (in %).

The examples below pair each entry with its known result.
C[C@H]1C(=O)N[C@@H](CO)C(=O)N[C@@]2(Cc3ccc(Cl)cc3)CCCN(C2)C(=O)[C@H]([C@@H]2CCc3ccccc32)CC(=O)N1Cc1ccc(Cl)cc1Oc1ccc(-c2cnc(C3CN(C)C3)n2C)cc1    70.1
C[C@H]1C(=O)N[C@@H](CO)C(=O)N[C@@]2(Cc3ccc(Cl)cc3)CCCN(C2)C(=O)[C@H]([C@@H]2CCc3ccccc32)CC(=O)N1Cc1ccc(Cl)cc1Oc1ccc(-c2cnc(CN(C)C)n2C)cc1.Cl    101.9

Data point: "COC[C@@H]1NC(=O)[C@H](C)N(Cc2ccc(Cl)cc2Oc2ccc(-c3cnc(CN(C)C)n3C)cc2)C(=O)O[C@@H](Cc2ccccc2)C(=O)N2CCC[C@@](Cc3ccc(Cl)cc3)(C2)NC1=O.Cl" ; Max % inhibition = 100.8

Data point: "C[C@H]1C(=O)N[C@@H](CO)C(=O)N(C)[C@@]2(Cc3ccc(Cl)cc3)CCCN(C2)C(=O)[C@H](Cc2ccccn2)CC(=O)N1Cc1c(F)cc(Cl)cc1Oc1ccc(-c2cnc(CN(C)C)n2C)cc1" ; Max % inhibition = 105.8

Data point: "C[C@H]1C(=O)N[C@@H](CO)C(=O)N[C@@]2(Cc3ccc(Cl)cc3)CCCN(C2)C(=O)[C@H]([C@H]2CCc3ccccc32)CC(=O)N1Cc1ccc(Cl)cc1Oc1ccc(-c2cnc(CN3CCCC3)n2C)cc1.Cl" ; Max % inhibition = 95.0

====

Molecular target: human PCSK9 (Homo sapiens, UniProt Q8NBP7)
Experiment: PCSK9 ligand binding assay (TR-FRET): interference with binding of human PCSK9 to human LDLR
Conditions: efficacy (Amax), 100% = 1 uM unlabeled human PCSK9, 0% = DMSO
Measured Max % inhibition, listed per entry for reference.
Reply with just the number (in %).

The examples below pair each entry with its known result.
COC[C@@H]1NC(=O)[C@H](CCN2CCOCC2)N(Cc2ccc(Cl)cc2Oc2ccc(-c3cnc(CN(C)C)n3C)cc2)C(=O)C[C@@H]([C@H]2CCc3ccccc32)C(=O)N(C)C[C@@H](Cc2ccc(Cl)cc2)N(C)C1=O.Cl [Compound 125]    92.2
C[C@H]1C(=O)N[C@@H](CO)C(=O)N[C@@]2(Cc3ccc(Cl)cc3)CCCN(C2)C(=O)[C@H](Cc2ccccc2)CC(=O)N1Cc1c(F)cc(F)cc1Oc1ccc(-c2cnc(CN3CCCC3)n2C)cc1 [Compound 75]    113.3
C[C@H]1C(=O)N[C@@H](CO)C(=O)N[C@@]2(Cc3ccc(Cl)cc3)CCCN(C2)C(=O)[C@H]([C@@H]2CCc3ccccc32)CC(=O)N1Cc1ccc(C(F)(F)F)cc1Oc1ccc(-c2cnc(CN(C)C)n2C)cc1 [Compound 90]    99.2

As a next step, examine the compound that follows.
Data point: COC[C@@H]1NC(=O)[C@H](C)N(Cc2ccc(Cl)cc2Oc2ccc(-c3cnc(CN(C)C)n3C)cc2)C(=O)C[C@@H](CC(F)(F)F)C(=O)N2CCC[C@@](Cc3ccc(Cl)cc3)(C2)NC1=O [Compound 2] ; Max % inhibition = 112.5
